Target entity: COX II (Homo sapiens)
Sequence (P35354 18-604): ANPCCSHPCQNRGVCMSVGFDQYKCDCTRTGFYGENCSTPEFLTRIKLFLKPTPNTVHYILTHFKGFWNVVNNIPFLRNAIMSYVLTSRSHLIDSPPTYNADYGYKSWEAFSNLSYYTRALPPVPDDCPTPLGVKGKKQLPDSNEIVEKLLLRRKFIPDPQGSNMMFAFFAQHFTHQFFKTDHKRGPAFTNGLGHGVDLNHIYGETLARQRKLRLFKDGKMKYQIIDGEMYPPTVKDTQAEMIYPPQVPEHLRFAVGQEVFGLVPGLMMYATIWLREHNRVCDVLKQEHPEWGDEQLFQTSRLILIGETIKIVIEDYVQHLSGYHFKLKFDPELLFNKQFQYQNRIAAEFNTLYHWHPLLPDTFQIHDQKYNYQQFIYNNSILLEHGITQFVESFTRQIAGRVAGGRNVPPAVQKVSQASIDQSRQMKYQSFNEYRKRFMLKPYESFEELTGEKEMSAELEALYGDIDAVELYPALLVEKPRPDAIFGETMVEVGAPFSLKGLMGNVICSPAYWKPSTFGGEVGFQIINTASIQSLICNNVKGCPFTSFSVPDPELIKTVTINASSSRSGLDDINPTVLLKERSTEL
Assay explanation: PGE2 production in human adherent monocytes stimulated with LPS
Type: cell-based
Run conditions: 30 min incubation; a) 10 min activation, A23187 + PMA; EIA; read-out: COX II IC50, inhibition of PGE2 production
Attribute measured: IC50 (nM)
Numbers only here, please. The scale is nM.

Problem: Give the reported IC50 for this molecule. `Cc1cc(Cc2ccc(=O)[nH]n2)n(C)c1C(=O)c1ccc(Cl)cc1`
Solution: 200

---

Target entity: COX II (Homo sapiens)
Assay explanation: radiometric assay, COX II inhibition (human recombinant, baculovirus expressed, partially purified)
Assay type: biochemical
Parameters: A 1.8 Kb DNA fragment containing the coding region of human COX II was generated by PCR; made in house; host or cells: Sf9 insect cells, baculovirus
Run conditions: radiometric assay, human recombinant baculovirus expressed enzyme; read-out: COX II IC50 (Table 2)
pIC50: −log10 of the molar value.
// 0 strictly below 6 in pIC50; 1 otherwise

Problem: Please indicate if the recorded pIC50 for `Cc1cc(Cc2ccc(=O)n(CCNS(C)(=O)=O)n2)n(C)c1C(=O)c1ccc(Cl)cc1` meets or exceeds 6.
Solution: 0

Problem: Please indicate if the recorded pIC50 for `COC(=O)Cn1nc(Cc2cc(C)c(C(=O)c3ccc(Cl)cc3)n2C)ccc1=O` meets or exceeds 6.
Solution: 1

Problem: Please indicate if the recorded pIC50 for `Cc1cccc(C)c1Cn1nc(Cc2cc(C)c(C(=O)c3ccc(Cl)cc3)n2C)ccc1=O` meets or exceeds 6.
Solution: 1

Problem: Please indicate if the recorded pIC50 for `CCc1ccc(C(=O)c2c(C)cc(Cc3ccc(=O)[nH]n3)n2C)cc1` meets or exceeds 6.
Solution: 1

Problem: Please indicate if the recorded pIC50 for `Cc1cc(Cc2ccc(=O)n(CCF)n2)n(C)c1C(=O)c1ccc(Cl)cc1` meets or exceeds 6.
Solution: 1

Problem: Please indicate if the recorded pIC50 for `Cc1cc(Cc2ccc(=O)[nH]n2)n(C)c1C(=O)c1ccc(Br)cc1` meets or exceeds 6.
Solution: 1

Problem: Please indicate if the recorded pIC50 for `CSc1ccc(C(=O)c2ccc(Cc3ccc(=O)[nH]n3)n2C)cc1` meets or exceeds 6.
Solution: 1

Problem: Please indicate if the recorded pIC50 for `Cc1ccc(C(=O)c2c(C)cc(Cc3ccc(=O)[nH]n3)n2C)cc1` meets or exceeds 6.
Solution: 1

Problem: Please indicate if the recorded pIC50 for `Cc1cc(Cc2ccc(=O)n(Cc3ccccc3)n2)n(C)c1C(=O)c1ccc(Cl)cc1` meets or exceeds 6.
Solution: 1

Problem: Please indicate if the recorded pIC50 for Cc1cc(C(C#N)c2ccc(=O)[nH]n2)n(C)c1C(=O)c1ccc(Cl)cc1 (stereo not shown) meets or exceeds 6.
Solution: 1

Problem: Please indicate if the recorded pIC50 for `C=Cc1ccc(C(=O)c2ccc(Cc3ccc(=O)[nH]n3)n2C)cc1` meets or exceeds 6.
Solution: 1

Problem: Please indicate if the recorded pIC50 for `Cc1cc(Cc2ccc(=O)n(CCCl)n2)n(C)c1C(=O)c1ccc(Cl)cc1` meets or exceeds 6.
Solution: 1

Problem: Please indicate if the recorded pIC50 for `Cc1ccc(C(=O)c2cc(Br)c(Cc3ccc(=O)[nH]n3)n2C)cc1` meets or exceeds 6.
Solution: 1

Problem: Please indicate if the recorded pIC50 for `CCc1ccc(C(=O)c2ccc(Cc3ccc(=O)[nH]n3)n2C)cc1` meets or exceeds 6.
Solution: 0

Problem: Please indicate if the recorded pIC50 for `Cc1cc(Cc2ccc(=O)n(CO)n2)n(C)c1C(=O)c1ccc(Cl)cc1` meets or exceeds 6.
Solution: 1

Problem: Please indicate if the recorded pIC50 for `COc1ccc(C(=O)c2c(C)cc(Cc3ccc(=O)[nH]n3)n2C)cc1` meets or exceeds 6.
Solution: 1

Problem: Please indicate if the recorded pIC50 for `Cc1c(Br)c(Cc2ccc(=O)[nH]n2)n(C)c1C(=O)c1ccc(Cl)cc1` meets or exceeds 6.
Solution: 0

Problem: Please indicate if the recorded pIC50 for `Cn1c(Cc2ccc(=O)[nH]n2)ccc1C(=O)c1ccc(Br)cc1` meets or exceeds 6.
Solution: 0

Problem: Please indicate if the recorded pIC50 for `Cn1c(Cc2ccc(=O)[nH]n2)ccc1C(=O)c1cccs1` meets or exceeds 6.
Solution: 0

Problem: Please indicate if the recorded pIC50 for `C=Cc1ccc(C(=O)c2c(C)cc(Cc3ccc(=O)[nH]n3)n2C)cc1` meets or exceeds 6.
Solution: 1

Problem: Please indicate if the recorded pIC50 for `COc1ccc(C(=O)c2cc(Cl)c(Cc3ccc(=O)[nH]n3)n2C)cc1` meets or exceeds 6.
Solution: 1

---

Target entity: COX I (Homo sapiens)
Sequence (P23219 24-599): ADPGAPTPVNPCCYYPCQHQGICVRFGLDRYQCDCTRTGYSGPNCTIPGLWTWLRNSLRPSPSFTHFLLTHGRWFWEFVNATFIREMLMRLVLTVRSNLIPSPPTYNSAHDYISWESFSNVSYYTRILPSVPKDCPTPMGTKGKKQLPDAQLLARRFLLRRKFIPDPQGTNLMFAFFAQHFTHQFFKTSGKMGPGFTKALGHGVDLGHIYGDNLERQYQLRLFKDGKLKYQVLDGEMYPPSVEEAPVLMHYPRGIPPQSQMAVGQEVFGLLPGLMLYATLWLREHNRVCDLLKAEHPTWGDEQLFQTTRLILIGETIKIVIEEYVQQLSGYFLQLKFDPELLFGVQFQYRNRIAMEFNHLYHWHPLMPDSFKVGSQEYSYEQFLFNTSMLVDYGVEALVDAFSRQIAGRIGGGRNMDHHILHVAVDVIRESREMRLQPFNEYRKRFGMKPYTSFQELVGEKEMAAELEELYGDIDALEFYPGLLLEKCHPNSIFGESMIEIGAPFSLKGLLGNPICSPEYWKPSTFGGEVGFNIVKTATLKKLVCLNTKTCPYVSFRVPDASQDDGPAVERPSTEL
Assay explanation: radiometric assay, COX I inhibition (human recombinant, baculovirus expressed, partially purified)
Type: biochemical
Set-up: A 2 Kb fragment containing the coding region of COX I; made in house; host or cells: Sf9 insect cells, baculovirus (cDNA from Oxford Biomedical Research)
Run conditions: radiometric assay, human recombinant baculovirus expressed enzyme; read-out: COX I IC50 (Table 2)
pIC50: −log10 of the molar value.
// f strictly below 4 in pIC50; t otherwise

Problem: Please indicate if the recorded pIC50 for Cc1ccc(C(=O)c2cc(Cl)c(Cc3ccc(=O)[nH]n3)n2C)cc1 [Compound 87] meets or exceeds 4.
Solution: f

Problem: Please indicate if the recorded pIC50 for Cc1cc(Cc2ccc(=O)n(CO)n2)n(C)c1C(=O)c1ccc(Cl)cc1 [Compound 153] meets or exceeds 4.
Solution: f

Problem: Please indicate if the recorded pIC50 for CNC(=O)Cn1nc(Cc2cc(C)c(C(=O)c3ccc(Cl)cc3)n2C)ccc1=O [Compound 125] meets or exceeds 4.
Solution: t

Problem: Please indicate if the recorded pIC50 for C=CCn1nc(Cc2cc(C)c(C(=O)c3ccc(Cl)cc3)n2C)ccc1=O [Compound 127] meets or exceeds 4.
Solution: t

Problem: Please indicate if the recorded pIC50 for Cn1c(Cc2ccc(=O)[nH]n2)cc(Cl)c1C(=O)c1ccc(Cl)cc1 [Compound 81] meets or exceeds 4.
Solution: f

Problem: Please indicate if the recorded pIC50 for Cc1ccc(C(=O)c2cc(Br)c(Cc3ccc(=O)[nH]n3)n2C)cc1 [Compound 130] meets or exceeds 4.
Solution: f

Problem: Please indicate if the recorded pIC50 for CC(=O)OCCn1nc(Cc2cc(C)c(C(=O)c3ccc(Cl)cc3)n2C)ccc1=O [Compound 135] meets or exceeds 4.
Solution: t

Problem: Please indicate if the recorded pIC50 for Cc1ccc(C(=O)c2ccc(Cc3ccc(=O)[nH]n3)n2C)cc1 [Compound 100] meets or exceeds 4.
Solution: f

Problem: Please indicate if the recorded pIC50 for Cc1cc(Cc2ccc(=O)n(Cc3ccccc3)n2)n(C)c1C(=O)c1ccc(Cl)cc1 [Compound 121] meets or exceeds 4.
Solution: t

Problem: Please indicate if the recorded pIC50 for C=Cc1ccc(C(=O)c2ccc(Cc3ccc(=O)[nH]n3)n2C)cc1 [Compound 54] meets or exceeds 4.
Solution: f

Problem: Please indicate if the recorded pIC50 for Cc1c(Br)c(Cc2ccc(=O)[nH]n2)n(C)c1C(=O)c1ccc(Cl)cc1 [Compound 25] meets or exceeds 4.
Solution: f

Problem: Please indicate if the recorded pIC50 for Cc1ccc(C(=O)c2c(C)cc(Cc3ccc(=O)[nH]n3)n2C)cc1 [Compound 30] meets or exceeds 4.
Solution: t

Problem: Please indicate if the recorded pIC50 for C=Cc1ccc(C(=O)c2c(C)cc(Cc3ccc(=O)[nH]n3)n2C)cc1 [Compound 33] meets or exceeds 4.
Solution: t

---

Target entity: UniProt:P23219
Assay explanation: radiometric assay, COX I inhibition (human recombinant, baculovirus expressed, partially purified)
Format: biochemical
Parameters: A 2 Kb fragment containing the coding region of COX I; made in house; host or cells: Sf9 insect cells, baculovirus (cDNA from Oxford Biomedical Research)
Run conditions: radiometric assay, human recombinant baculovirus expressed enzyme; read-out: COX I IC50 (Table 2)
Would you mind telling me the reported pIC50 of each entry?
A value of pIC50 is the negative decimal logarithm of a concentration given in moles per litre.

Problem: Give the reported pIC50 for this compound. `COc1ccc(C(=O)c2cc(Cl)c(Cc3ccc(=O)[nH]n3)n2C)cc1`
Solution: 4.00

Problem: Give the reported pIC50 for this compound. `COc1ccc(C(=O)c2c(Cl)cc(Cc3ccc(=O)[nH]n3)n2C)cc1`
Solution: 4.69

Problem: Give the reported pIC50 for this compound. `Cc1cc(Cc2ccc(=O)n(CC#N)n2)n(C)c1C(=O)c1ccc(Cl)cc1`
Solution: 7.13

Problem: Give the reported pIC50 for this compound. `Cc1cc(Cc2cc(C)c(=O)[nH]n2)n(C)c1C(=O)c1ccc(Cl)cc1`
Solution: 5.31

Problem: Give the reported pIC50 for this compound. `Cc1cc(Cc2ccc(=O)n(CCC#N)n2)n(C)c1C(=O)c1ccc(Cl)cc1`
Solution: 4.07

Problem: Give the reported pIC50 for this compound. `C#CCn1nc(Cc2cc(C)c(C(=O)c3ccc(Cl)cc3)n2C)ccc1=O`
Solution: 4.21

Problem: Give the reported pIC50 for this compound. `CC[C@@H](C)NC(=O)Cn1nc(Cc2cc(C)c(C(=O)c3ccc(Cl)cc3)n2C)ccc1=O`
Solution: 5.49

Problem: Give the reported pIC50 for this compound. `COCCn1nc(Cc2cc(C)c(C(=O)c3ccc(Cl)cc3)n2C)ccc1=O`
Solution: 4.03

Problem: Give the reported pIC50 for this compound. `Cc1cc(Cc2ccc(=O)n(CCCl)n2)n(C)c1C(=O)c1ccc(Cl)cc1`
Solution: 5.28

Problem: Give the reported pIC50 for this compound. `Cc1cc(Cc2ccc(=O)n(CCNS(C)(=O)=O)n2)n(C)c1C(=O)c1ccc(Cl)cc1`
Solution: 3.08

Problem: Give the reported pIC50 for this compound. `COc1ccc(C(=O)c2c(C)cc(Cc3ccc(=O)[nH]n3)n2C)cc1`
Solution: 4.46

Problem: Give the reported pIC50 for this compound. `COc1ccc(Cn2nc(Cc3cc(C)c(C(=O)c4ccc(Cl)cc4)n3C)ccc2=O)cc1`
Solution: 5.10
